This collection of values is drawn from patent US10106542B2.

Recorded melting point for the following compounds
Entry rule: numbers only, all in °C.

Recorded results for 2 compounds are shown here.
{"STRUCTURE STRING": "Cc1cc(-c2cnn3c2C(=O)N(c2ccc(C(F)(F)F)c(C#N)c2)C[C@@H]3C)cc(C)n1", "melting point (°C)": 214.1}
{"STRUCTURE STRING": "CC[C@H]1CN(c2ccc(C(F)(F)F)cc2)C(=O)c2c(-c3ccnc(C)c3)cnn21", "melting point (°C)": 134.4}

Now for a further compound.
### Prompt Recorded melting point for `C[C@H]1CN(c2ccc(Cl)cc2)C(=O)c2c(-c3ccncc3)cnn21` , please?
### Response 144.3

---

# TARGET OR SYSTEM: human mGlu2 receptor (Homo sapiens, UniProt Q14416)
# Construct: expressed in transfected cells; host or cells: CHO cells (membrane preparation)
# Sequence (Q14416 19-872): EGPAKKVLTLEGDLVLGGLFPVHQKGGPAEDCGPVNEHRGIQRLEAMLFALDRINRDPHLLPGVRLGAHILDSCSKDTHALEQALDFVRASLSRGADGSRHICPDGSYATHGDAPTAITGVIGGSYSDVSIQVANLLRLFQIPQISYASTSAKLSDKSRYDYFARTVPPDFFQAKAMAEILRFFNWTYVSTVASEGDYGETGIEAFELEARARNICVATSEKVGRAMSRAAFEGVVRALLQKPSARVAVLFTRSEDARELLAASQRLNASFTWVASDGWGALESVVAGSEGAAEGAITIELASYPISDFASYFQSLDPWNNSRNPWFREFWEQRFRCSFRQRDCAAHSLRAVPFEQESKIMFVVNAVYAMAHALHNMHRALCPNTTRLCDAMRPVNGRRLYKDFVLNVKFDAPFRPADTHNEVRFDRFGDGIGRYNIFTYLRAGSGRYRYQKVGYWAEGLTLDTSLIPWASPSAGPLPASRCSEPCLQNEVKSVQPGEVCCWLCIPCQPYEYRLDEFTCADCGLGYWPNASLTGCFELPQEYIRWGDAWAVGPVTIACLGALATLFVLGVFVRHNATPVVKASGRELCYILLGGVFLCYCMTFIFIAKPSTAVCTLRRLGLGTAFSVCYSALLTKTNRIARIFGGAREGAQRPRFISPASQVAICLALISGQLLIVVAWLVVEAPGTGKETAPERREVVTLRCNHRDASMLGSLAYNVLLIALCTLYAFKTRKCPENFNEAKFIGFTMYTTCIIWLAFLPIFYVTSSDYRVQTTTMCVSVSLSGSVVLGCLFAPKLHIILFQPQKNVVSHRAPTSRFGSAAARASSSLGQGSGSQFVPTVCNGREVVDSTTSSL
# PROCEDURE TEXT: [35S]GTPγS binding assay (mGluR2 negative allosteric modulation)
# Format: biochemical
# SETUP CONDITIONS: membranes from CHO cells transfected with human mGlu2 receptor; glutamate 60 μM; pIC50 = −log IC50 (M); read-out: GTPγS - hmGluR2 anGT pIC50 (converted)
READOUT KIND: IC50 (M)
Entry rule: numbers only, all in M.

### Prompt Recorded IC50 for CNc1cc(-c2cnn3c2C(=O)N(c2ccc(C(F)(F)F)c(Cl)c2)C[C@@H]3C)cc(C#N)n1 [compound 95] , please?
### Response 1.78e-09

### Prompt Recorded IC50 for C[C@H]1CN(c2ccc(C(F)(F)F)cc2)C(=O)c2c(-c3ccnc(F)c3)cnn21 [compound 247] , please?
### Response 3.02e-08

### Prompt Recorded IC50 for CCNc1cc(-c2cnn3c2C(=O)N(c2ccc(C(F)(F)F)c(C)c2)C[C@@H]3C)ccn1 [compound 256] , please?
### Response 3.63e-09

### Prompt Recorded IC50 for CC(C)Oc1cc(-c2cnn3c2C(=O)N(c2ccc(C(F)(F)F)cc2)C[C@@H]3C)ccn1 [compound 138] , please?
### Response 6.76e-08

---

# TARGET OR SYSTEM: human mGlu2 receptor (Homo sapiens, UniProt Q14416)
# Construct: expressed in transfected cells; host or cells: CHO cells (membrane preparation)
# PROCEDURE TEXT: [35S]GTPγS binding assay (mGluR2 negative allosteric modulation)
# Assay type: biochemical
# SETUP CONDITIONS: relative maximal effect: maximal % inhibition relative to the control glutamate response; read-out: GTPγS - hmGluR2 anGT Emax
READOUT KIND: Emax (%)
Entry rule: numbers only, all in %.

Recorded results for 5 compounds are shown here.
{"STRUCTURE STRING": "CNc1cc(-c2cnn3c2C(=O)N(c2ccc(C(F)(F)F)c(C#N)c2)C[C@@H]3C)ccn1", "Emax, %": 103}
{"STRUCTURE STRING": "CCCNc1cc(-c2cnn3c2C(=O)N(c2ccc(C(F)(F)F)cc2)C[C@@H]3C)ccn1", "Emax, %": 105}
{"STRUCTURE STRING": "CCOc1cc(N2C[C@H](C)n3ncc(-c4ccnc(C)c4)c3C2=O)ccc1Cl", "Emax, %": 102}
{"STRUCTURE STRING": "CCNc1cc(-c2cnn3c2C(=O)N(c2ccc(Cl)c(Cl)c2)C[C@@H]3C)ccn1", "Emax, %": 108}
{"STRUCTURE STRING": "C[C@H]1CN(c2ccc(C(F)(F)F)cc2)C(=O)c2c(-c3ccnc(N4CCOCC4)c3)cnn21", "Emax, %": 108}

### Prompt Recorded Emax for `CCCNc1cc(-c2cnn3c2C(=O)N(c2ccc(C(F)(F)F)c(C)c2)C[C@@H]3C)ccn1` , please?
### Response 108

### Prompt Recorded Emax for `C[C@H]1CN(c2ccc(C(F)(F)F)c(Cl)c2)C(=O)c2c(-c3ccnc(N4CC(F)C4)c3)cnn21` , please?
### Response 107

### Prompt Recorded Emax for `C[C@H]1CN(c2ccc(C(F)(F)F)c(F)c2)C(=O)c2c(-c3ccncc3)cnn21` , please?
### Response 101

---

# TARGET OR SYSTEM: human mGlu2 receptor (Homo sapiens, UniProt Q14416)
# Construct: expressed in transfected cells; host or cells: CHO cells (membrane preparation)
# PROCEDURE TEXT: [35S]GTPγS binding assay (mGluR2 negative allosteric modulation)
# Format: biochemical
# SETUP CONDITIONS: relative maximal effect: maximal % inhibition relative to the control glutamate response
Recorded GTPγS - hmGluR2 anGT Emax for the following compounds
Entry rule: numbers only, all in %.

Recorded results for 2 compounds are shown here.
{"COMPOUND": "COCC1CN(c2ccc(C(F)(F)F)cc2)C(=O)c2c(-c3ccnc(C)c3)cnn21 (single isomer, unassigned) [compound 120]", "READOUT KIND": "GTPγS - hmGluR2 anGT Emax", "UNIT LABEL": "%", "EXPERIMENTAL VALUE": 106}
{"COMPOUND": "COCC1CN(c2ccc(C(F)(F)F)cc2)C(=O)c2c(-c3ccnc(C)c3)cnn21 (single isomer, unassigned) [compound 121]", "READOUT KIND": "GTPγS - hmGluR2 anGT Emax", "UNIT LABEL": "%", "EXPERIMENTAL VALUE": 75}

### Prompt Hello, I am looking for reported GTPγS - hmGluR2 anGT Emax with human mGlu2 receptor (Homo sapiens, UniProt Q14416) for CNc1cc(-c2cnn3c2C(=O)N(c2ccc(Cl)c(Cl)c2)CC3CF)ccn1 (single isomer, unassigned) . Could you help?
### Response 104

---

READOUT KIND: melting point (°C)
Entry rule: numbers only, all in °C.

Recorded results for 7 compounds are shown here.
{"COMPOUND": "Cc1cc(-c2cnn3c2C(=O)N(c2ccc(C(F)F)c(Cl)c2)C[C@@H]3C)ccn1", "UNIT LABEL": "°C", "EXPERIMENTAL VALUE": 127.5}
{"COMPOUND": "C[C@H]1CN(c2ccc(C(F)(F)F)c(Cl)c2)C(=O)c2c(-c3ccncc3)cnn21", "UNIT LABEL": "°C", "EXPERIMENTAL VALUE": 146.8}
{"COMPOUND": "Cc1cc(-c2cnn3c2C(=O)N(c2ccc(Cl)c(C(F)(F)F)c2)C[C@@H]3C)cc(C)n1", "UNIT LABEL": "°C", "EXPERIMENTAL VALUE": 205.1}
{"COMPOUND": "Cc1cc(-c2cnn3c2C(=O)N(c2cc(Cl)c(C(F)(F)F)cn2)C[C@@H]3C)ccn1", "UNIT LABEL": "°C", "EXPERIMENTAL VALUE": 292.8}
{"COMPOUND": "Cc1cc(-c2cnn3c2C(=O)N(c2ccc(Cl)c(F)c2)C[C@@H]3C)ccn1", "UNIT LABEL": "°C", "EXPERIMENTAL VALUE": 141.7}
{"COMPOUND": "CCOc1nc(N2C[C@H](C)n3ncc(-c4ccnc(C)c4)c3C2=O)ccc1C(F)(F)F [compound 189]", "UNIT LABEL": "°C", "EXPERIMENTAL VALUE": 142.4}
{"COMPOUND": "COc1cc(-c2cnn3c2C(=O)N(c2ccc(Cl)c(Cl)c2)C[C@@H]3C)cc(C)n1", "UNIT LABEL": "°C", "EXPERIMENTAL VALUE": 166.8}

Now for a further compound.
### Prompt Recorded melting point for `C[C@H]1CN(c2ccc(C(F)(F)F)cc2)C(=O)c2c(-c3ccnc(C#N)c3)cnn21` , please?
### Response 155.1

---

# TARGET OR SYSTEM: human mGlu2 receptor (Homo sapiens, UniProt Q14416)
# Construct: expressed in transfected cells; host or cells: CHO cells (membrane preparation)
# PROCEDURE TEXT: [35S]GTPγS binding assay (mGluR2 negative allosteric modulation)
# Format: biochemical
# SETUP CONDITIONS: relative maximal effect: maximal % inhibition relative to the control glutamate response
Recorded GTPγS - hmGluR2 anGT Emax for the following molecules
Output should be the measured figure followed by the unit it is expressed in.

Recorded results for 3 molecules are shown here.
{"MOLECULE": "Cc1cc(-c2cnn3c2C(=O)N(c2ccc(Cl)c(Cl)c2)C[C@@H]3C)ccn1", "GTPγS - hmGluR2 anGT Emax": "112%"}
{"MOLECULE": "CN(C)c1cc(-c2cnn3c2C(=O)N(c2ccc(Cl)c(Cl)c2)CC3CF)ccn1 (single isomer, unassigned)", "GTPγS - hmGluR2 anGT Emax": "103%"}
{"MOLECULE": "COCC1CN(c2ccc(Cl)c(Cl)c2)C(=O)c2c(-c3ccnc(C)c3)cnn21 (single isomer, unassigned)", "GTPγS - hmGluR2 anGT Emax": "100%"}

Now for a further molecule.
### Prompt Recorded GTPγS - hmGluR2 anGT Emax for Cc1cc(-c2cnn3c2C(=O)N(c2ccc(Cl)c(Cl)c2)CC3CF)ccn1 (single isomer, unassigned) , please?
### Response 105%
